# reported IC50; entries follow
System: H1299
Experiment notes: Cellular proliferation assay (Alamar blue), H1299
Format: cell-based
Study conditions: Homo sapiens, NCI-H1299, H1299 cells; 10% FCS; 72 h with compound; Alamar blue 4 h; read-out: pIC50 H1299 (converted)

Here are 5 molecules together with their reported answers.
INSERT INTO assay_data (chemical_structure, assay_value) VALUES
  ('CN1CCCN(C)C(=O)COc2cc(ccc2OCC2CC2)Nc2ncnc3[nH]cc(c23)C1', '1.58 µM'),
  ('CN1CCN(c2ccc3cc2OCCCC(=O)N(C)CCCN(C)Cc2c[nH]c4ncnc(c24)N3)CC1', '2.51 µM'),
  ('COc1ccc2cc1OCC(=O)N(C)CCCN(Cc1ccccc1)Cc1c[nH]c3ncnc(c13)N2', '> 10 µM'),
  ('COc1ccc2cc1CN(C)CCCC(=O)N(C)CCCc1c[nH]c3ncnc(c13)N2', '> 10 µM'),
  ('COc1ccc2cc1OCC(=O)N(C)CCCNCc1c[nH]c3ncnc(c13)N2', '> 10 µM');

Query (molecule): COc1ccc2cc1OCCCCC(=O)N1CCN(CC1)Cc1c[nH]c3ncnc(c13)N2 ; field requested: IC50
> 10 µM

Query (molecule): CN1CCN(C)C(=O)CCCCOc2cc(ccc2Cl)Nc2ncnc3[nH]cc(c23)C1 ; field requested: IC50
> 10 µM

Query (molecule): CN1CCCN(C)C(=O)COc2cc(ccc2NC(=O)Nc2cccc(Cl)c2)Nc2ncnc3[nH]cc(c23)C1 ; field requested: IC50
2.51 µM

###

System: HCT-116
Experiment notes: Cellular proliferation assay (Alamar blue), HCT-116
Format: cell-based
Study conditions: Homo sapiens; HCT-116 cells; 10% FCS; 72 h with compound; Alamar blue 4 h; read-out: pIC50 HCT-116 (converted)
Property: IC50 (nM)

Here are 2 compounds together with their reported answers.
INSERT INTO results (compound, assay_value) VALUES
  ('CCOc1ccc2cc1OCC(=O)N(C)CCCN(C)Cc1c[nH]c3ncnc(c13)N2 [Compound 63]', 631),
  ('CN1CCCN(C)C(=O)COc2cc(ccc2OCCNc2ncccn2)Nc2ncnc3[nH]cc(c23)C1 [Compound 159]', 2000);

1. COc1ccc(NC(=O)Nc2ccc3cc2OCC(=O)N(C)CCCN(C)Cc2c[nH]c4ncnc(c24)N3)cc1 [Compound 15]
2. COc1ccc2cc1OCCNC(=O)CN(C)Cc1c[nH]c3ncnc(c13)N2 [Compound 22]
Would you kindly point out which of 1 and 2 has the smaller IC50 figure? # answer = label of selected item
1
(1: 794 nM, 2: 2000 nM)

1. CN1CCCN(C)C(=O)COc2cc(ccc2OCC(=O)NC2CC2)Nc2ncnc3[nH]cc(c23)C1 [Compound 125]
2. CN1CCCN(C)C(=O)COc2cc(ccc2OCC2CC2)Nc2ncnc3[nH]cc(c23)C1 [Compound 68]
Would you kindly point out which of 1 and 2 has the smaller IC50 figure? # answer = label of selected item
2

a. CN1CCCN(C)C(=O)COc2cc(ccc2OCCSc2nccn2C)Nc2ncnc3[nH]cc(c23)C1 [Compound 143]
b. CN1CCCN(C)C(=O)COc2cc(ccc2OCCOc2cc(C(F)(F)F)ccn2)Nc2ncnc3[nH]cc(c23)C1 [Compound 154]
c. CN1CCCN(C)C(=O)COc2cc(ccc2OCCOc2ccc(Cl)cc2)Nc2ncnc3[nH]cc(c23)C1 [Compound 134]
d. COCCOc1ccc2cc1OCC(=O)N(C)CCCNCc1c[nH]c3ncnc(c13)N2 [Compound 138]
Rank descending by IC50. Output the labels ranked as instructed.
a, d, b, c

###

System: A2780
Experiment notes: Cellular proliferation assay (Alamar blue), A2780
Type: cell-based
Study conditions: Homo sapiens, A2780, A2780 cells; 10% FCS; 72 h with compound; Alamar blue 24 h; read-out: pIC50 A2780 (converted)
Experimental: Cellular proliferation of these compounds was tested on a panel of different cell lines in the presence of 10% FCS serum (37° C. and 5% (v/v) CO2). In a first step these cells were seeded and incubated for 24 hours in the absence of compound. In the second step the cells were incubated for 72 hours with the compounds to be tested for 72 hours. The viable cell number was finally assessed in a standard Alamar blue cell viability assay. […]
Property: IC50 (nM)

INSERT INTO measurements (chemical_structure, unit_label, assay_value) VALUES
  ('COc1ccc(NC(=O)Nc2ccc3cc2OCC(=O)N(C)CCCN(C)Cc2c[nH]c4ncnc(c24)N3)cc1', 'nM', 794),
  ('CN1CCCN(C)C(=O)COc2cc(ccc2NC(=O)NC2CCCCC2)Nc2ncnc3[nH]cc(c23)C1', 'nM', 1000);

###

Tested on: H1299
Experiment notes: Cellular proliferation assay (Alamar blue), H1299
Assay type: cell-based
Study conditions: Homo sapiens, NCI-H1299, H1299 cells; 10% FCS; 72 h with compound; Alamar blue 4 h; read-out: pIC50 H1299 (converted)
Property: IC50 (µM)

INSERT INTO results (chemical_structure, property, assay_value) VALUES
  ('CN1CCCN(C)C(=O)COc2cc(ccc2OCCN2CCOCC2)Nc2ncnc3[nH]cc(c23)C1', 'IC50', 7.94);

1. CN1CCCN(C)C(=O)CCc2cccc(c2)Nc2ncnc3[nH]cc(c23)C1
2. Cc1nc2c3c(c[nH]c3n1)CN(C)CCCN(C)C(=O)COc1cc(ccc1Cl)N2
3. CN1CCCN(C)C(=O)COc2cc(ccc2OCCSc2nccn2C)Nc2ncnc3[nH]cc(c23)C1
Hi! Can you put these in order of IC50, lowest number first? Output the labels ranked as instructed.
1, 2, 3

###

# reported IC50; entries follow
Tested on: H1299
Experiment notes: Cellular proliferation assay (Alamar blue), H1299
Format: cell-based
Study conditions: Homo sapiens, NCI-H1299, H1299 cells; 10% FCS; 72 h with compound; Alamar blue 4 h; read-out: pIC50 H1299 (converted)

Here are 5 compounds together with their reported answers.
INSERT INTO results (chemical_structure, assay_value) VALUES
  ('COc1cc(NC(=O)COc2ccc3cc2OCC(=O)N(C)CCCN(C)Cc2cn(C)c4ncnc(c24)N3)cc(OC)c1OC', '> 10 µM'),
  ('CN1CCCN(C)C(=O)COc2cc(ccc2OCCOC2CCCC2)Nc2ncnc3[nH]cc(c23)C1', '0.0398 µM'),
  ('CN1CCCN(C)C(=O)COc2cc(ccc2OC(F)F)Nc2ncnc3[nH]cc(c23)C1', '1.26 µM'),
  ('COc1ccc2cc1OCC(=O)N(C(C)C)CCCN(C)Cc1c[nH]c3ncnc(c13)N2', '> 10 µM'),
  ('COCCOCCOc1ccc2cc1OCC(=O)N(C)CCCN(C)Cc1c[nH]c3ncnc(c13)N2', '1 µM');

Query (compound): CN1CCN(c2ccc3cc2OCC(=O)N(C)CCCN(C)Cc2c[nH]c4ncnc(c24)N3)CC1 ; field requested: IC50
3.16 µM

Query (compound): COc1ccc2cc1CCC(=O)N(C)CCN(C)Cc1c[nH]c3ncnc(c13)N2 ; field requested: IC50
> 10 µM

Query (compound): CN1CCN(C)C(=O)CCCCOc2cc(ccc2N2CCOCC2)Nc2ncnc3[nH]cc(c23)C1 ; field requested: IC50
> 10 µM

###

Tested on: A2780
Experiment notes: Cellular proliferation assay (Alamar blue), A2780
Assay type: cell-based
Study conditions: Homo sapiens, A2780, A2780 cells; 10% FCS; 72 h with compound; Alamar blue 24 h; read-out: pIC50 A2780 (converted)
Property: IC50 (nM)

INSERT INTO assay_data (chemical_structure, unit_label, assay_value) VALUES
  ('COc1ccc2cc1N(C)CC(=O)N(C)CCCN(C)Cc1c[nH]c3ncnc(c13)N2', 'nM', 2000);

1. CN1CCCN(C)C(=O)COc2cc(ccc2OCCCNc2ccc(Cl)cc2)Nc2ncnc3[nH]cc(c23)C1
2. CN1CCCN(C)C(=O)COc2cc(ccc2NC(=O)Nc2cccc(Cl)c2)Nc2ncnc3[nH]cc(c23)C1
3. COCCN(CCOc1ccc2cc1OCC(=O)N(C)CCCN(C)Cc1c[nH]c3ncnc(c13)N2)C(C)C
Rank descending by IC50. Output the labels ranked as instructed.
2, 3, 1

###

System: PC3
Experiment notes: Cellular proliferation assay (Alamar blue), PC3
Assay type: cell-based
Study conditions: Homo sapiens, PC-3, PC-3 cells; 10% FCS; 72 h with compound; Alamar blue 24 h; read-out: pIC50 PC-3 (converted)
Method: Cellular proliferation of these compounds was tested on a panel of different cell lines in the presence of 10% FCS serum (37° C. and 5% (v/v) CO2). In a first step these cells were seeded and incubated for 24 hours in the absence of compound. In the second step the cells were incubated for 72 hours with the compounds to be tested for 72 hours. The viable cell number was finally assessed in a standard Alamar blue cell viability assay. […]
Property: IC50 (µM)

Here are 3 compounds together with their reported answers.
INSERT INTO results (chemical_structure, assay_value) VALUES
  ('CN1CCN(c2ccc3cc2OCCCC(=O)N(C)CCN(C)Cc2c[nH]c4ncnc(c24)N3)CC1', 10),
  ('COCCOCCOc1ccc2cc1OCC(=O)N(C)CCCN(C)Cc1c[nH]c3ncnc(c13)N2', 6.31),
  ('COCCOc1ccc2cc1OCC(=O)N(C)CCCN(C)Cc1c[nH]c3ncnc(c13)N2', 2.51);

I. CN1CCCN(C)C(=O)COc2cc(ccc2OCC2CC2)Nc2ncnc3[nH]cc(c23)C1
II. CC(C)OCCOc1ccc2cc1OCC(=O)N(C)CCCN(C)Cc1c[nH]c3ncnc(c13)N2
III. COc1ccc(OCCCOc2ccc3cc2OCC(=O)N(C)CCCN(C)Cc2c[nH]c4ncnc(c24)N3)cc1
IV. CC(C)Oc1ccc2cc1OCC(=O)N(C)CCCN(C)Cc1c[nH]c3ncnc(c13)N2
Hi! Can you put these in order of IC50, lowest number first? Output the labels ranked as instructed.
IV, I, III, II

Origin of the recorded values: patent US8318731B2
